Test system: HEK-293T
Experiment: Incucyte cell viability with HEK293T; note: unitless GR value; below 1 slowed growth and below 0 cell loss
Format: toxicity, cell-based
Conditions: human, 0 h, 10 µM, compound concentration 10 uM, replicate number 2
This listing pairs compounds with measured Growth Rate.
Provide a numeric answer; units are not to be included.

**Q:** Tell me reported Growth Rate for Cc1nnc2n1-c1sc3c(c1C(c1ccccc1Cl)=NC2)CC(C(=O)N1CCOCC1)C3 (stereo not given) , tested with HEK-293T.
**A:** 0

**Q:** What value of Growth Rate on HEK-293T does "O=C(O)/C=C/c1ccc(Cn2ccnc2)cc1" have?
**A:** 0.4

**Q:** Tell me reported Growth Rate for "CNC(=O)c1ccc(C)c(-n2c(C)cc(OCc3ccc(F)cc3F)c(Br)c2=O)c1" , tested with HEK-293T.
**A:** 0.72

**Q:** Look up Growth Rate with HEK-293T for this compound: "CNC(=O)c1cc(C(=O)NC2CC2)cn(Cc2ccccc2)c1=O"
**A:** 0.91

Others:
**Q:** Identify the measured Growth Rate of "CN(C)[C@H]1CCc2nc(NC(=O)c3cccc(Cn4cc(-c5ccc(C#N)cc5)cn4)c3)sc2C1.O=C(O)C(F)(F)F" for HEK-293T.
**A:** -0.96
